Source of measurements: patent US20230233569A1

Target: NRAS G12C (Homo sapiens, UniProt P01111+P62937, G12C)
Sequence (P01111 whole entry G12C): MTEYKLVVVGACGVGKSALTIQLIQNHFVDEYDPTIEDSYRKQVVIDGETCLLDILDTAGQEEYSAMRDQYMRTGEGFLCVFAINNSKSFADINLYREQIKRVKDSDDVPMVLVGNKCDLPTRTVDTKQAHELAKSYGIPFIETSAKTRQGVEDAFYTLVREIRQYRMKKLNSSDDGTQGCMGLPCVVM
Sequence (P62937 whole entry): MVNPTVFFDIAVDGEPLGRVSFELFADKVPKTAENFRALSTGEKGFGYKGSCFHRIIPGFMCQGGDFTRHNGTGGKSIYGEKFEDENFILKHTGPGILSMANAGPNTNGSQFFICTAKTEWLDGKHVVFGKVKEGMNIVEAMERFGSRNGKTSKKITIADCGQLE
Assay: Ras-Raf disruption / FRET / MOA assay (BRAF RBD)
Type: biochemical
Conditions: NRAS G12C; read-out: NRAS G12C FRET data IC50
pIC50: −log10 of the molar value.
Would you mind telling me the reported pIC50 of each entry?

// worked examples, pIC50 included
molecule	measured_on	readout_kind	observed_result
CCn1c(-c2cccnc2[C@H](C)OC)c2c3cc(ccc31)-c1cc(O)cc(c1)C[C@H](NC(=O)[C@H](C(C)C)N(C)C(=O)[C@H]1CCN(C(=O)C3CO3)C1)C(=O)N1CCC[C@H](N1)C(=O)OCC(C)(C)C2 (stereo partly shown)	NRAS G12C (Homo sapiens, UniProt P01111+P62937, G12C)	pIC50	> 8.00
CCn1c(-c2cnccc2COC)c2c3cc(ccc31)-c1cccc(c1)C[C@H](NC(=O)[C@H](C(C)C)N(C)C(=O)CCN=C=NCCOC)C(=O)N1CCC[C@H](N1)C(=O)OCC(C)(C)C2	NRAS G12C (Homo sapiens, UniProt P01111+P62937, G12C)	pIC50	7.00 to 8.00
CCn1c(-c2cccnc2[C@H](C)OC)c2c3cc(ccc31)-c1csc(n1)C[C@H](NC(=O)[C@H](C(C)C)N(C)C(=O)N1CCN(C(=O)[C@H]3CN3)[C@H](C)C1)C(=O)N1CCC[C@H](N1)C(=O)OCC(C)(C)C2	NRAS G12C (Homo sapiens, UniProt P01111+P62937, G12C)	pIC50	7.00 to 8.00

Here is another molecule to look at.
## Input What value of measured pIC50 is listed for CCn1c(-c2cccnc2[C@H](C)OC)c2c3cc(ccc31)-c1cc(O)cc(c1)C[C@H](NC(=O)[C@H](C(C)C)N(C)C(=O)CN(C)C(=O)[C@H]1C[C@@H]3N[C@@H]3C1)C(=O)N1CCC[C@H](N1)C(=O)OCC(C)(C)C2 (atropisomer, axis not shown) ?
## Output 7.00 to 8.00

* * *

Would you mind telling me the reported IC50 of each entry?
Molecular target: KRAS G12S (Homo sapiens, UniProt P01116+P62937, G12S)
Sequence (P01116 1-169 isoform P01116-2 G12S limits assumed): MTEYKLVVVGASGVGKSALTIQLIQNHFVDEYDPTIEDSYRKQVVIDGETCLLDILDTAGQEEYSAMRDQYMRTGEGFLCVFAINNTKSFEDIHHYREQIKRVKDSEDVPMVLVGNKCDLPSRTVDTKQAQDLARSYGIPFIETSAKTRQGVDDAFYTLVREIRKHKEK
Sequence (P62937 whole entry): as the sequence (P62937 whole entry) above
Test: Disruption of BRAF RBD interaction with Ras (FRET / MOA assay, with Cyclophilin A)
Assay type: biochemical
Conditions: read-out: KRAS G12S FRET data, IC50

// worked examples, IC50 included
molecule	measured_on	readout_kind	observed_result
C=CC(=O)N1CC[C@H](C(=O)N(C)[C@H](C(=O)N[C@H]2Cc3cc(O)cc(c3)-c3ccc4c(c3)c(c(-c3cccnc3[C@H](C)OC)n4C)CC(C)(C)COC(=O)[C@@H]3CCCN(N3)C2=O)C(C)C)C1	KRAS G12S (Homo sapiens, UniProt P01116+P62937, G12S)	IC50	1000 to 10000 nM
CCn1c(-c2cccnc2[C@H](C)OC)c2c3cc(ccc31)-c1cccc(c1)C[C@H](NC(=O)[C@H](C(C)C)N(C)C(=O)[C@H]1CCN(C(=O)CN(C)C)C1)C(=O)N1CCC[C@H](N1)C(=O)OCC(C)(C)C2	KRAS G12S (Homo sapiens, UniProt P01116+P62937, G12S)	IC50	1000 to 10000 nM
C=CC(=O)N1CC[C@H](C(=O)N(C)[C@H](C(=O)N[C@H]2Cc3cc(O)cc(c3)-c3ccc4c(c3)c(c(-c3cc(CN(C)C)cnc3COC)n4CC)CC(C)(C)COC(=O)[C@@H]3CCCN(N3)C2=O)C(C)C)C1	KRAS G12S (Homo sapiens, UniProt P01116+P62937, G12S)	IC50	100 to 1000 nM

Here is another molecule to look at.
## Input What value of measured IC50 is listed for CCn1c(-c2cc(N3CCN(C)CC3)cnc2[C@H](C)OC)c2c3cc(ccc31)-c1csc(n1)C[C@H](NC(C)=O)C(=O)N1CCC[C@H](N1)C(=O)OCC(C)(C)C2 [Example A321] ?
## Output 100 to 1000 nM

* * *

Target: KRAS G13C (Homo sapiens, UniProt P01116+P62937, G13C)
Sequence (P01116 1-169 isoform P01116-2 G13C limits assumed, one chain of several): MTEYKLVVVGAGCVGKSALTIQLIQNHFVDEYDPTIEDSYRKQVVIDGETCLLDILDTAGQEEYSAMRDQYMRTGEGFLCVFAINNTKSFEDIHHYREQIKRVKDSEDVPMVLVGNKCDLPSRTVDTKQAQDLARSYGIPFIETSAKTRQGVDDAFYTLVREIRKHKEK
Experiment: Ras-Raf disruption / FRET / MOA assay (BRAF RBD)
Type: biochemical
Conditions: Ras-Raf disruption, with Cyclophilin A; read-out: KRAS G13C FRET data IC50
pIC50: −log10 of the molar value.
Would you mind telling me the reported pIC50 of each entry?

// worked examples, pIC50 included
compound	measured_on	pIC50
CCn1c(-c2cccnc2[C@H](C)OC)c2c3cc(ccc31)-c1cccc(c1)C[C@H](NC(=O)[C@H](C(C)C)N(C)C(=O)[C@H]1CC[C@H](N=C=NCc3ccccc3OC)C1)C(=O)N1CCC[C@H](N1)C(=O)OCC(C)(C)C2	KRAS G13C (Homo sapiens, UniProt P01116+P62937, G13C)	6.00 to 7.00
CCn1c(-c2cnccc2COC)c2c3cc(ccc31)-c1cc(O)cc(c1)C[C@H](NC(=O)[C@H](C(C)C)N(C)C(=O)CN(C)C(=O)[C@H]1[C@@H](C(=O)OC)N1[S@+]([O-])C(C)(C)C)C(=O)N1CCC[C@H](N1)C(=O)OCC(C)(C)C2 (stereo partly shown)	KRAS G13C (Homo sapiens, UniProt P01116+P62937, G13C)	7.00 to 8.00
CCn1c(-c2cccnc2[C@H](C)OC)c2c3cc(ccc31)-c1cc(O)cc(c1)C[C@H](NC(=O)[C@H](C(C)C)N(C)C(=O)CN(C)S(=O)(=O)[C@H]1CN1C)C(=O)N1CCC[C@H](N1)C(=O)OCC(C)(C)C2 (single isomer, unassigned)	KRAS G13C (Homo sapiens, UniProt P01116+P62937, G13C)	7.00 to 8.00
CCn1c(-c2cnccc2COC)c2c3cc(ccc31)-c1cc(O)cc(c1)C[C@H](NC(=O)[C@H](C(C)C)N(C)C(=O)c1ccc(NC(=O)[C@H]3CN3)cn1)C(=O)N1CCC[C@H](N1)C(=O)OCC(C)(C)C2	KRAS G13C (Homo sapiens, UniProt P01116+P62937, G13C)	7.00 to 8.00
CCn1c(-c2cccnc2[C@H](C)OC)c2c3cc(ccc31)-c1cc(O)cc(c1)C[C@H](NC(=O)[C@H](C(C)C)N(C)C(=O)C1CC3(C1)CN(C(=O)[C@H]1CN1)C3)C(=O)N1CCC[C@H](N1)C(=O)OCC(C)(C)C2	KRAS G13C (Homo sapiens, UniProt P01116+P62937, G13C)	7.00 to 8.00
CCn1c(-c2cccnc2[C@H](C)OC)c2c3cc(ccc31)-c1csc(n1)C[C@H](NC(=O)[C@H](C(C)C)N(C)C(=O)N(C)C1CN(C(=O)[C@@H]3CN3)C1)C(=O)N1CCC[C@H](N1)C(=O)OCC(C)(C)C2	KRAS G13C (Homo sapiens, UniProt P01116+P62937, G13C)	6.00 to 7.00
CCn1c(-c2cccnc2[C@H](C)OC)c2c3cc(ccc31)-c1cc(O)cc(c1)C[C@H](NC(=O)[C@H](C(C)C)N1CC[C@@]3(CCN(C(=O)[C@@H]4N[C@@H]4C4CC4)C3)C1=O)C(=O)N1CCC[C@H](N1)C(=O)OCC(C)(C)C2	KRAS G13C (Homo sapiens, UniProt P01116+P62937, G13C)	7.00 to 8.00
CCn1c(-c2cccnc2[C@H](C)OC)c2c3cc(ccc31)-c1cc(O)cc(c1)C[C@H](NC(=O)[C@H](C1CCCC1)N1CC[C@@]3(CCN(C(=O)[C@H]4CN4)C3)C1=O)C(=O)N1CCC[C@H](N1)C(=O)OCC(C)(C)C2	KRAS G13C (Homo sapiens, UniProt P01116+P62937, G13C)	7.00 to 8.00

Would you mind listing pIC50 for each of the following compounds?
1. CCn1c(-c2cccnc2[C@H](C)OC)c2c3cc(ccc31)-c1cccc(c1)C[C@H](NC(=O)[C@H](C(C)C)N(C)C(=O)[C@H]1CC[C@H](N=C=NC34CC(C3)C4)C1)C(=O)N1CCC[C@H](N1)C(=O)OCC(C)(C)C2
2. CCn1c(-c2cccnc2[C@H](C)OC)c2c3cc(ccc31)-c1csc(n1)C[C@H](NC(=O)[C@H](C(C)C)N(C)C(=O)N(C)CC1CN(C(=O)[C@H]3CN3)C1)C(=O)N1CCC[C@H](N1)C(=O)OCC(C)(C)C2 (atropisomer, axis not shown)
3. CCn1c(-c2cccnc2[C@H](C)OC)c2c3cc(ccc31)-c1cc(O)cc(c1)C[C@H](NC(=O)[C@H](C(C)C)N(C)C(=O)N1C[C@@H]3[C@H]1CCN3C(=O)[C@@H]1CN1)C(=O)N1CCC[C@H](N1)C(=O)OCC(C)(C)C2 (atropisomer, axis not shown)

## Output
6.00 to 7.00
6.00 to 7.00
7.00 to 8.00

Would you mind listing pIC50 for each of the following compounds?
1. CCn1c(-c2cccnc2[C@H](C)OC)c2c3cc(ccc31)-c1cc(O)cc(c1)C[C@H](NC(=O)[C@H](C(C)C)N1CCC3(CN(C(=O)[C@H]4CN4)C3)C1=O)C(=O)N1CCC[C@H](N1)C(=O)OCC(C)(C)C2
2. CCn1c(-c2cccnc2[C@H](C)OC)c2c3cc(ccc31)-c1cccc(c1)C[C@H](NC(=O)[C@H](C(C)C)N(C)C(=O)[C@H]1CC[C@H](N=C=NC(C)C)C1)C(=O)N1CCC[C@H](N1)C(=O)OCC(C)(C)C2
3. CCn1c(-c2cccnc2[C@H](C)OC)c2c3cc(ccc31)-c1csc(n1)C[C@H](NC(=O)[C@H](C(C)C)N(C)C(=O)N1CCN(C(=O)[C@@H]3CN3)CC1)C(=O)N1CCC[C@H](N1)C(=O)OCC(C)(C)C2
4. CCn1c(-c2cccnc2[C@H](C)OC)c2c3cc(ccc31)-c1cc(O)cc(c1)C[C@H](NC(=O)[C@H](C(C)C)N(C)C(=O)N1CCN(C(=O)[C@H]3CN3)CC1=O)C(=O)N1CCC[C@H](N1)C(=O)OCC(C)(C)C2 (atropisomer, axis not shown)
5. CCn1c(-c2cnccc2COC)c2c3cc(ccc31)-c1cccc(c1)C[C@H](NC(=O)[C@H](C(C)C)N(C)C(=O)CCN=C=NCc1ccccc1C)C(=O)N1CCC[C@H](N1)C(=O)OCC(C)(C)C2

## Output
7.00 to 8.00
7.00 to 8.00
6.00 to 7.00
7.00 to 8.00
< 5.00
